Data provenance is patent US8173639B2.

assayTarget: human NK3 receptor (Homo sapiens)
Construct: membrane preparation
Sequence (P29371 1-465): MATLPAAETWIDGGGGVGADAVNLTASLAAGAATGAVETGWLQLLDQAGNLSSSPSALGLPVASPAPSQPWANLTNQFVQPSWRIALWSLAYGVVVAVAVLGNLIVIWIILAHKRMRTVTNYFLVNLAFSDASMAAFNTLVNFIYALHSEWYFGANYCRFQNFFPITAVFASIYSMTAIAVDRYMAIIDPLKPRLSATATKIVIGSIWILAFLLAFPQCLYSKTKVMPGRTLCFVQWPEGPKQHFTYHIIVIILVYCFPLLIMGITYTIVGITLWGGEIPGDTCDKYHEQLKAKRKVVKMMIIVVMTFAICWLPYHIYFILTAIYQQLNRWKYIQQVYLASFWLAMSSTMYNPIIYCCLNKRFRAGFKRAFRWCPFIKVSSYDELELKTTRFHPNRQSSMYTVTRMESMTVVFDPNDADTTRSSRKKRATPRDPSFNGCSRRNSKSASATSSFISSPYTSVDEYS
testName: NK3 receptor efficacy and potency assay (FLIPR Calcium 4, BHK cells)
conditionDescription: read-out: Potency cIC50
pIC50: −log10 of the molar value.
Parameter threshold = 7. Response is label 1 when pIC50 meets or exceeds it, else label 0.

Observe how each entry below is paired with its result.
compound	labelClass
CC[C@H](NC(=O)c1c(CN2Cc3ccccc3C2)n(-c2ccccc2)c(=O)c2ccccc12)c1ccccc1 [Example 2bn]	label 0
CC[C@H](NC(=O)c1c(CN2CCCNCC2)n(-c2ccccc2)c(=O)c2ccccc12)c1ccccc1 [Example 2cz]	label 1
CC[C@H](NC(=O)c1c(CN2CCOCC2)n(-c2ccccc2)c(=O)c2ccccc12)c1ccccc1 [Example 2r]	label 0
CC[C@H](NC(=O)c1c(CN2CC(C)OC(C)C2)n(-c2ccccc2)c(=O)c2ccccc12)c1ccccc1 (some centres unmarked) [Example 2s]	label 0

Alright, here's another compound for you.
Is pIC50 at least 7? Consider CC[C@H](NC(=O)c1c(CN2CCc3ccccc3C2)n(-c2ccccc2)c(=O)c2ccccc12)c1ccccc1 [Example 2bg]
label 0

----------
Recorded pKi values (human NK3 receptor (Homo sapiens, UniProt P29371)) are given below.
Would you please state pKi, meaning minus log10 of the concentration in mol/L, as a bare number?

compound	endpointResult
CC[C@H](NC(=O)c1c(CN2CCOCC2)n(-c2ccccc2)c(=O)c2ccccc12)c1ccccc1 [Example 2r]	6.49

We next turn to a different compound, shown below.
Which pKi is reported for this compound? CC[C@H](NC(=O)c1c(CN2Cc3ccccc3C2)n(-c2ccccc2)c(=O)c2ccccc12)c1ccccc1 [Example 2bn]
6.80
